- experimental target: T1, human GREM1 (hGREM1-His; SEQ ID NO: 595) (human, UniProt O60565 25-184)
- T1 construct: also called biotin-hGREM1-His; recombinant human GREM1 protein
- T1 sequence: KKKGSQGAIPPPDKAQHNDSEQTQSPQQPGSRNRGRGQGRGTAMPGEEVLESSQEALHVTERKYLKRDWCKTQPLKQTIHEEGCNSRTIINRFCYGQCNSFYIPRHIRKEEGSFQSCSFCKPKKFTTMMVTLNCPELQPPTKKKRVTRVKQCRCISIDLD
- test summary: SPR, Biacore T200, 25 C, mAb captured, hGREM1-His injected;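 note: Heparin-supplemented HBS-EP+ used as running buffer, association and dissociation phases followed, Kd computed as koff divided by kon and half-life derived from koff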
reported property: Kd (nM)

binder	number
H2bM2783N (antibody, mouse IgG2, V domains shown, H2M prefix = mouse IgG2 Fc (here H2bM); also called H2M2783N) VH: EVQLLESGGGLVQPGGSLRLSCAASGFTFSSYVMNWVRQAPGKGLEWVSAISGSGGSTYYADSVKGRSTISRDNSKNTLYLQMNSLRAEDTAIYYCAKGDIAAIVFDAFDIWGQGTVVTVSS VL: DIQMTQSPSSLSASVGDRVTITCQASQDISSCLNWYQHKPGKAPKLLIYDASYLETGVPSRFSGSGSGTDFTFTISSLQPEDIATYYCQQYDNLPYTFGQGTKLEIK	7.4
H4H6245P (antibody, human IgG4, V domains shown, H4H prefix = human IgG4 Fc) VH: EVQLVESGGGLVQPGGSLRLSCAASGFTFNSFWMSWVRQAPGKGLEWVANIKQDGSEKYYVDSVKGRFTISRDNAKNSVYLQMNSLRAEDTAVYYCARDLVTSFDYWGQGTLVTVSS VL: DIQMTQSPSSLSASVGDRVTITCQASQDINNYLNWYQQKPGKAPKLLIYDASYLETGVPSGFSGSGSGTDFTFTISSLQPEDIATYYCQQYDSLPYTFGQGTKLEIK	1.51

Sourced from patent US20200157194A1
